molecular target: Trp-p8 (Homo sapiens, UniProt Q7Z2W7, T58I); construct: expressed in transfected cells; test: Cell viability (ATP) assay for Trp-p8 antagonists: protection of CHO/Trp-p8 cells from toxic control agonist D-1607; assay type: cell-based; settings: Table 2, Formula VIII antagonists; 10 μM compound plus toxic concentration of control agonist D-1607, CHO/Trp-p8 cells, 37° C.; ATP level relative to DMSO
Sequence (Q7Z2W7 whole entry T58I): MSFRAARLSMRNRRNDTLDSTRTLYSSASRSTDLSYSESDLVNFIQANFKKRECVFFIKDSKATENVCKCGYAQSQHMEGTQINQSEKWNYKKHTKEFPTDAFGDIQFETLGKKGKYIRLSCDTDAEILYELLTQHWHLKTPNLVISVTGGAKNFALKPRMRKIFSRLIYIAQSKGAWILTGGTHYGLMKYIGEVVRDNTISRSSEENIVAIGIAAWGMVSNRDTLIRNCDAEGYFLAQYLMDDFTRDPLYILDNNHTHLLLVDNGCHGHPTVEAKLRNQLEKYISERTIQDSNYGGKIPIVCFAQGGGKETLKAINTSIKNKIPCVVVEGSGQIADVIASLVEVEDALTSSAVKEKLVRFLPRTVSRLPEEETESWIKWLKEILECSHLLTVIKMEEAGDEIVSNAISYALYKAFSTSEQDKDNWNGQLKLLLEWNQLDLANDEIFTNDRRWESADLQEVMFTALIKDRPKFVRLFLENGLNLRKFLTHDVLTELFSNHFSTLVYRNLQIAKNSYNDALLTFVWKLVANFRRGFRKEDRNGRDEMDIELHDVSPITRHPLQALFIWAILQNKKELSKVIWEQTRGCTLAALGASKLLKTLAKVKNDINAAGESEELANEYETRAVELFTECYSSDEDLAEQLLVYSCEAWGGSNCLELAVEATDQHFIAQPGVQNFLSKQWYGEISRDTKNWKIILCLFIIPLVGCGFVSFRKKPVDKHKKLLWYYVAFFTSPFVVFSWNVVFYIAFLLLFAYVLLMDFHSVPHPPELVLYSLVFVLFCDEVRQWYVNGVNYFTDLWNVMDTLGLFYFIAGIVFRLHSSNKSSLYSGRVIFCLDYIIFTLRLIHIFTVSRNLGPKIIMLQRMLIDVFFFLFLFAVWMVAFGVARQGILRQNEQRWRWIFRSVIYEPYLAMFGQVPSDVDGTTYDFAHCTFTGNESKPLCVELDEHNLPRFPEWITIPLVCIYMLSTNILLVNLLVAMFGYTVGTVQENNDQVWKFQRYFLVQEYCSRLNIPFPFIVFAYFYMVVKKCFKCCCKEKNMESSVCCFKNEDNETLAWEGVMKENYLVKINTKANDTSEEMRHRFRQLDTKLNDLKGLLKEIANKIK
Test readout: Relative Viability (%) at 10 μM
Field format: number, assumed %, no unit text.

Reference set, count: 3
CC(C)[C@@H]1CC[C@@H](C)C[C@H]1OCC(=O)N1CCCc2ccccc21
82
CC(C)[C@@H]1CC[C@@H](C)C[C@H]1NC(=O)N1CCc2ccccc2C1
86
CC(C)[C@@H]1CC[C@@H](C)C[C@H]1NCc1c[nH]nc1-c1ccc(F)cc1
65

Okay, now this compound:
Annotate the compound CC(C)[C@@H]1CC[C@@H](C)C[C@H]1NC(=O)COc1ccccc1[N+](=O)[O-] with its measured Relative Viability (%) at 10 μM. 191
